Test system: 786-0 renal
Assay: NCI tumour cell line growth inhibition, 48 h; in the data active = GI50 below about 0.43 µM; inactive = the rest
Output constraint: value belongs to active, inactive

What did this assay record as the result for `COc1ccccc1N(C(C)=O)C1=C(Cl)C(=O)c2ccccc2C1=O` ? inactive

Tell me the assay call for CC(=O)NC1CCCN(O)C(=O)/C=C(/C)CCOC(=O)C(NC(C)=O)CCCN(O)C(=O)/C=C(/C)CCOC(=O)C(NC(C)=O)CCCN(O)C(=O)/C=C(/C)CCOC1=O.[Fe] (centres undefined) please. inactive

Please share the test call associated with CC(N)CN.CC(N)CN.[Cl-].[O]=[Os+2]=[O] (centres undefined) . inactive

Tell me the recorded outcome of this test for Nc1cccc2c1CN(C1CCC(=O)NC1=O)C2=O (centres undefined) . inactive

Please share the test call associated with `O=C(Nc1ccc2cc3ccc(NC(=O)N4CCCCCC4)cc3nc2c1)N1CCCCCC1` . active

Hi, do you know how `COc1cc(-c2nccc3[nH]c(-c4cccc5[nH]ccc45)nc23)cc(OC)c1OC` came out in this test? active

Which outcome was entered for the compound `CCOC(=O)c1c(C(F)(F)F)n([O-])c2ccc(Cl)cc2[n+]1=O` in this test? inactive

Please share the test call associated with `CCc1ccc(Oc2nccc(-c3c(-c4ccc(F)cc4)ncn3C3CCNCC3)n2)cc1` . inactive

Hi, do you know how `Cc1cc(N2CCN(C)CC2)nc(N(CCNc2ccnc3cc(Cl)ccc23)Cc2ccco2)n1` came out in this test? inactive

----------
Test system: TK-10 renal
Assay: NCI tumour cell line growth inhibition, 48 h
Hi there, I'd appreciate the recorded TGI for every entry that follows.

Fill in reported TGI for this entry: CNC(=O)C1CCC(=O)N1CN(C(C)=O)c1ccccc1 (configuration not stated) > 100 µM

Provide TGI value for the following compound: `NC(=O)c1ccccc1NC(=O)C(=O)Nc1n[nH]c(N)n1` > 100 µM

Report TGI for `O=C(O)c1ccccc1-c1ccccc1C(=O)Nc1ccc2c(c1)Cc1ccccc1-2` > 100 µM

Give TGI for Cc1ccc(SC2C(C)(C)N(C(C)C)P2(=O)N(C(C)C)C(C)C)cc1 (configuration not stated) > 100 µM

Report TGI for CCOC(=O)CCC(NC(=O)c1ccc(OCc2ccc3nc(OC)c(OC)nc3c2)cc1)C(=O)OCC (configuration not stated) > 100 µM

Quickly give me recorded TGI for `COc1ccc(/C=C/c2ccnc3ccccc23)cc1` 31.7 µM

Quick one: give measured TGI for `Cc1nn2c(=O)n(-c3cccc(-n4nnc5c(-c6ccccc6)c(C)nn5c4=O)c3C)nnc2c1-c1ccccc1` > 100 µM

Give recorded TGI. `CC(C)[Si](Oc1cc2c3c(ccc2c(O)c1[C@@H](C)CO[Si](C)(C)C(C)(C)C)C(C)(C)CCC3)(C(C)C)C(C)C` > 100 µM

Name the recorded TGI of the compound listed here: `CCOC(=O)C1=C(C)NC(C)=C(C(=O)OCC)C1c1cc(Br)c(O)c(OC)c1` 39.2 µM

Supply recorded TGI for `C=C1C(=O)O[C@H]2[C@H]1CC/C(COC(=O)c1cccc3ccccc13)=C\CC[C@@]1(C)O[C@@H]21` here. 3.42 µM

Read off the recorded TGI for `Cc1ccc(N(C)S(=O)(=O)c2ccccc2)cc1` > 100 µM

Quote TGI reported for `COc1cc(-c2ccccc2)c(OC)cc1CCl` please. > 100 µM

----------
Tested on: DMS 114 small cell lung
Assay: NCI tumour cell line growth inhibition, 48 h
Exercise: state measured TGI for each of the molecules provided.

Consider the molecule `CC1=C(C(=O)Nc2cccc(C(F)(F)F)c2)C(c2ccccc2F)C(C(=O)Nc2cccc(C(F)(F)F)c2)=C(C)N1` . State its measured TGI. 14.2 µM

Indicate the recorded TGI value for this molecule: CN(C(=O)C12C3C4C1C1C2C3C41C(=O)N(C)C(C)(C)C)C(C)(C)C (centres undefined) > 50 µM

Give reported TGI value for CC(=O)n1cc(CC(C)O)c(=O)[nH]c1=O (centres undefined) > 100 µM

# return recorded TGI for entry Nc1nccc2c1ncn2C1C=C(CO)C(O)C1O (centres undefined) > 1000 µM

----------
System: HCC-2998 colon
Test: NCI tumour cell line growth inhibition, 48 h
property.measured: TGI

Name the value of TGI reported for `Nc1nc(NNc2ccccc2F)cc(=O)[nH]1` when tested on HCC-2998 colon. > 100 µM

// fetch TGI; item: `CCNC(=S)Nc1c(C#N)c2n(c1C(=O)OCC)CCCCC2` ; system: HCC-2998 colon > 100 µM

Please tell me the measured TGI for O=C(O)c1cccc(S(=O)(=O)NN2C(=O)CSC2c2ccccc2Cl)c1 (stereo not drawn) ; system: HCC-2998 colon. > 100 µM

Specify TGI for Cc1cc(C(=O)N2CCN(C)CC2)c2c(=O)n(-c3ccccc3)c(=O)n(CC(O)CN3CCN(c4ncccn4)CC3)c2n1 (stereo not drawn) , system HCC-2998 colon. > 100 µM

Output reported TGI of the molecule C=C(C)C1Cc2c(cc(OC)c3c(=O)c4ccccc4n(C)c23)O1 (stereo not drawn) on HCC-2998 colon. > 100 µM

Tell me TGI of `COc1ccc(/C=C/c2ccnc3ccccc23)cc1` when tested on HCC-2998 colon. 36.6 µM

Fill: TGI (HCC-2998 colon) for this molecule C=CCC1(O)C(=O)OC2C(O)COC21O (stereo not drawn) > 100 µM

Report value: TGI, system: HCC-2998 colon, molecule: `Nc1ncnc2c1ccn2CC=C(CO)CO` > 100 µM

Tell me its TGI on HCC-2998 colon: `COc1ccc2[nH]c3c(C)c4ccnc(NCCCN(C)CCCN)c4c(C)c3c2c1` 0.376 µM

Lab note: HCC-2998 colon assay, enter TGI for CC(=O)c1c2c(cc3c1CC1(C3)Cc3ccc4c(c3C1=O)CCC4)CCC2 (stereo not drawn) here > 100 µM

State the measured TGI (HCC-2998 colon) of `CN=c1ss/c(=N\C(=S)N(C)C)n1C1CCCCC1` > 31.6 µM

Tell me TGI of `C=CC(=O)N1CC2(CC(n3nc(-c4ccc(Oc5ccccc5)cc4)c4c(N)ncnc43)C2)C1` when tested on HCC-2998 colon. > 100 µM

With HCC-2998 colon as the test system, provide measured TGI for this molecule: `O=CNNC(=O)CSc1nc2ccc(I)cc2c(=O)n1Cc1ccccc1` 81.6 µM

Report the value of TGI obtained on HCC-2998 colon for Cc1ccc(C)c(NC(=O)/C(=N\N)C(c2cnc3ccc([N+](=O)[O-])cc3n2)[N+](=O)[O-])c1 (stereo not drawn) . > 100 µM

Please report TGI with HCC-2998 colon for item `CN(C)CCCNC(=O)c1cccc2nc3ccccc3nc12` . 50.4 µM

Give the observed TGI of `CSc1ncc2c(C#N)c3ccccn3c(=O)c2n1` for HCC-2998 colon. > 100 µM

State TGI on HCC-2998 colon. Entry: `O=C1NC(=O)C(N2CCc3ccccc32)=C1c1ccc(Cl)cc1` > 25 µM

# lookup: HCC-2998 colon TGI, key = `COc1ccc(Oc2nc(Nc3ccc(N4CCOCC4)cc3)ncc2NC(=O)Nc2cc(OC)cc(OC)c2)cc1` 7.16 µM

Tell me its TGI on HCC-2998 colon: `Cc1cc(Br)c2nsnc2c1[N+](=O)[O-]` 4.44 µM

Determine reported TGI for `COc1cc(-c2ccc(Nc3ccccc3C(=O)O)c(OC)c2)ccc1Nc1ccccc1C(=O)O` ; test system: HCC-2998 colon. > 82 µM

// fetch TGI for `C/C(=C\CCc1ccsc1)CC/C=C(\C)CCCN1CCN(CCO)CC1` ; system: HCC-2998 colon 3.63 µM

Using HCC-2998 colon as the test system, report measured TGI of NC(CCC(=O)NC(CSC(=O)N(O)c1ccc(Cl)cc1)C(=O)NCC(=O)O)C(=O)O (stereo not drawn) . > 0.5 µM

Fill: TGI (HCC-2998 colon) for this molecule `COC(=O)C(=O)c1cc2ccccc2n1S(=O)(=O)c1ccccc1` > 100 µM

Output reported TGI of the molecule `S=C(Nc1ccc(Cl)cc1)SC1CCCCC1` on HCC-2998 colon. 39.3 µM

System HCC-2998 colon. Read-out TGI. Item `Cc1ccc(-n2nnc3c(sc4ccccc43)c2=O)cc1` . Report value. > 100 µM

Enter measured TGI, system HCC-2998 colon, for the molecule shown: `CCc1ccc(Oc2nccc(-c3c(-c4ccc(F)cc4)ncn3C3CCNCC3)n2)cc1` 7.61 µM

Consider the molecule `CN1C(=O)CN=C(c2ccccc2F)c2cc(N=C=S)ccc21` tested on HCC-2998 colon; state its TGI. > 100 µM

Find the measured TGI of `O=[N+]([O-])c1ccc(/C=N/n2c(CCc3n[nH]c(=S)n3/N=C/c3ccc([N+](=O)[O-])o3)n[nH]c2=S)o1` with HCC-2998 colon as test system. 33 µM

Answer briefly: TGI recorded on HCC-2998 colon for `Cc1no[n+]([O-])c1/C=N/NS(=O)(=O)c1ccccc1` > 100 µM

Supply TGI measured with HCC-2998 colon for COc1cc(C2CC(=O)c3c(C)nn(-c4nc5ccccc5[nH]4)c3C2)cc(OC)c1OC (stereo not drawn) . > 100 µM

# return TGI of `O=S1CCN(Cc2ccc(-c3ccc4ncnc(Nc5ccc(OCc6ccccc6)c(F)c5)c4c3)o2)CC1` (system: HCC-2998 colon) > 25 µM

Param request: TGI | system HCC-2998 colon | item CC1(C)CC(=O)C(CC2C(=O)c3ccccc3C2=O)C(=O)C1C(=O)C(=O)Nc1cccc2ccc(O)cc12 (stereo not drawn) > 100 µM

Answer briefly: TGI recorded on HCC-2998 colon for CC(=O)N1N=C(c2ccc3ccccc3c2O)CC1c1ccc(Cl)cc1Cl (stereo not drawn) > 100 µM
